B1: POLD4 (parent)
chain: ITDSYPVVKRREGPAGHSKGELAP

Variants of: B1
protocol: protein stability index of a GFP-peptide fusion (GPS, HEK-293T) (PSI 1-6); higher = more stable;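 also: lentivirally expressed fusions sorted by FACS into six bins by GFP to DsRed ratio, PSI derived from sequencing read proportions per bin multiplied by bin number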
reported_conditions: c terminus: a fixed tail appended
measured_attribute: protein stability index
Please give the numeric answer without any surrounding text.

| variant_annotation | protein stability index |
| --- | --- |
| D3H | 2.97 |

protein stability index reported for this variant H17K : 4.05

Record H17T , field protein stability index: 3.91

The reported value for E21K in terms of protein stability index is 3

Lab book: protein stability index of V7Y noted as 4.14

Noted for I1M : its protein stability index reads 2.72

Record summary for H17S : reported protein stability index = 3.78

Entry under test: K19H . Its protein stability index was 3.56

# protein stability index of G13P = 4.43

Sample Y5N ; protein stability index observed: 4.98
